A collection of compounds and their measured Percent Effect
Target: Ubiquitin-activating enzyme e1, putative (Leishmania donovani (strain BPK282A1)) (UniProt E9BSI1)
Sequence (E9BSI1 as listed by the source): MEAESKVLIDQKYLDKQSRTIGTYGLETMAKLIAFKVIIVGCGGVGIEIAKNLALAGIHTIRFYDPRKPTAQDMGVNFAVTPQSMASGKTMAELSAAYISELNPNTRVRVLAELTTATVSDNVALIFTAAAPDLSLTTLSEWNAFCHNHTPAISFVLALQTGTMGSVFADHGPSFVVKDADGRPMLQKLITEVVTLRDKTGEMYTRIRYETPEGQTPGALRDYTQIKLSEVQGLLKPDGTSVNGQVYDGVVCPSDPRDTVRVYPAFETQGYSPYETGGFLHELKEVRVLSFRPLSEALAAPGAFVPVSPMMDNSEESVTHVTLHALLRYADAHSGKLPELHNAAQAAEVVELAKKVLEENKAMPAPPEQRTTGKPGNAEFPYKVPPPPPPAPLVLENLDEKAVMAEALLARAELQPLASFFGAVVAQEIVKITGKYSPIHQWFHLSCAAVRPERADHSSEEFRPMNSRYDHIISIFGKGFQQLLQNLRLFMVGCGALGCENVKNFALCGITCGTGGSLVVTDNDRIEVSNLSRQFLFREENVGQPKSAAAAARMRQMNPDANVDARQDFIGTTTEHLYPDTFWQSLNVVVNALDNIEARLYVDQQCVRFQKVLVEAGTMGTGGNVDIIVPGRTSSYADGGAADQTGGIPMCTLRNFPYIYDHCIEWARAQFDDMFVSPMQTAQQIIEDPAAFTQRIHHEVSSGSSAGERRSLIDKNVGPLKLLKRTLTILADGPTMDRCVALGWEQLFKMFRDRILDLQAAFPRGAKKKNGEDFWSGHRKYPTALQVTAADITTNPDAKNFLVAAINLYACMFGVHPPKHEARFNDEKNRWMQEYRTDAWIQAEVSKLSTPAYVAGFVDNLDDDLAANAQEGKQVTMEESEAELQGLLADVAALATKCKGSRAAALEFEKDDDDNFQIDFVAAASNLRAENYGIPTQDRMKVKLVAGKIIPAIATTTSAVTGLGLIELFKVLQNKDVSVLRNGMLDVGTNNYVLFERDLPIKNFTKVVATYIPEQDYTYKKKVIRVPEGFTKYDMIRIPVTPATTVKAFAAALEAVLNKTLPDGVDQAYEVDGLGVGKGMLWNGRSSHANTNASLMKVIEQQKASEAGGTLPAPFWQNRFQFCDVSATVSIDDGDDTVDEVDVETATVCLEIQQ
Assay: Leishmania donovani Ubiquitin Activating Enzyme (LdE1)
Assay type: functional
Design: scale not given: direction of the effect not stated beside the values
Settings: 30 µM
Entries with a potency or affinity are not part of this list.

compound	unit-spec	Percent Effect
O=C(CN1CCC(c2ccnn2CCO)CC1)NCc1cccs1	%	15.2
CC1=Nc2c(c(=O)[nH]n2C(C)C)C(c2cccs2)S1 (centres undefined)	%	-1.33
NC(=O)C1CCCN(C(=O)c2cnc3c(cnn3C3CCCC3)c2)C1 (centres undefined)	%	15.2
CN1CCCC(Cc2ccnc3ccncc23)CC1 (centres undefined)	%	-1.35
COc1cccn(CC(=O)N(C)Cc2ccoc2)c1=O	%	-5.48
COc1c(C)cnc(CN2CCOC(Cn3nc(C)nc3C)C2)c1C (centres undefined)	%	7.59
Cc1nc(C(C)(C)NC(=O)Nc2ccccc2)no1	%	-2.74
CCOC(=O)CCC(=O)N1CCC(Oc2ccc(C(F)(F)F)cn2)CC1	%	7.79
COCCOc1ccc(NC(=O)N2CCCC2c2cc(C)no2)cn1 (centres undefined)	%	0
COCCN(C)CC(=O)N1C[C@H]2CC[C@@H]1CN(C(=O)c1ccncc1)C2	%	5.33
O=C(NC1CCS(=O)(=O)C1)c1sccc1-c1ccc(F)cc1 (centres undefined)	%	5.41
CC(NC(=O)N(C)Cc1ccsc1)c1ccc2c(c1)OCO2 (centres undefined)	%	10.5
O=C(NCCc1ccccn1)C1=NN(c2ccccc2)C(=O)CN1	%	15.2
CC(C)Nc1nc2c(cc1C(=O)N(C)C)CCNCC2	%	16
Cn1cc(C2CCCN2Cc2csc(C(C)(C)C)n2)cn1 (centres undefined)	%	12.7
O=C(c1cccc2c1OCCO2)N1CCCC(n2ccnc2)C1 (centres undefined)	%	5.26
C1CC(c2noc(C3CC3)n2)CN(Cc2noc(C3CC3)n2)C1 (centres undefined)	%	0
CCCc1cc(C(=O)N(C)Cc2cccc3ncccc23)n(C)n1	%	15.6
CC(OCC(F)(F)F)C(=O)NCc1ccc(-n2cncn2)nc1 (centres undefined)	%	18.2
CNc1cncc(C2CCCN2Cc2ccccc2OCC(=O)O)n1 (centres undefined)	%	-52.7
Cn1cc(C(=O)N2C[C@@H]3COC[C@]3(COCc3cccnc3)C2)cn1	%	13
Cc1noc([C@@H]2CC[C@@H]3[C@@H](CCN3S(=O)(=O)C3CC3)O2)n1	%	8.11
O=C(NCCNc1ncccn1)N1CCN(Cc2cccnc2)CC1	%	13.5
Cc1ccc(C(=O)N2CCC3(CCN(C(=O)c4cccnc4)C3)CC2)o1	%	13.5

---

A collection of compounds and their measured Percent Effect
Target: Arginase-2, mitochondrial (Homo sapiens) (UniProt P78540)
Sequence (whole entry): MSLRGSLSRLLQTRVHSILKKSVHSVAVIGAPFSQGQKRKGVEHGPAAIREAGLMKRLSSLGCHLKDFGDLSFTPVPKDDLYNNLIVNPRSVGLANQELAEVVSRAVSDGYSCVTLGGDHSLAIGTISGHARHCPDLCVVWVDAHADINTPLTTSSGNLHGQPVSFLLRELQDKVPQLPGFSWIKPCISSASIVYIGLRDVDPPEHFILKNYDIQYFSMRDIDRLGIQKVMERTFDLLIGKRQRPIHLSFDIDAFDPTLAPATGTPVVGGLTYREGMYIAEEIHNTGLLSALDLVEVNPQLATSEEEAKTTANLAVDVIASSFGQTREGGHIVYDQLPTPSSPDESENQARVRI
Assay: in vitro enzyme assay to detect the production of urea directly proportional to the activity of Arginase II; also: in the data most compounds retested in dose-response had high values
Type: functional
Set-up: scale not given: direction of the effect not stated beside the values
Details: 33.3 µM

compound	unit-spec	Percent Effect
COCCN1C[C@@H]2CCCO[C@@H]2[C@H](NC(=O)c2cnccn2)C1	%	-45.3
c1ccc(-c2nc(CN3CCCC3Cn3cncn3)cs2)cc1 (configuration not stated)	%	-2.28
CC(CNCc1ccc(Cl)c(Cl)c1)Oc1ccccn1 (configuration not stated)	%	-7.22
Cc1nc(C2CCCN2CCCNS(C)(=O)=O)no1 (configuration not stated)	%	4.98
Cn1ccc(C(=O)NC2CCC23CCN(C(=O)c2ccncc2)CC3)c1 (configuration not stated)	%	0
Cc1cc(C)n(CC2CCCN2C(=O)c2cc[nH]n2)n1 (configuration not stated)	%	0.215
COc1cccc(CN(C)C(=O)CSc2ccc3c(c2)OCCO3)c1	%	-2.37
Cc1ccc(CCNC(=O)N2CCCC(Cc3nccn3C)C2)cn1 (configuration not stated)	%	-2.5
Cc1nc(CN2C[C@@H]3CN(C(=O)c4cnccn4)C[C@@H]3C2)cs1	%	-2.79
CCCN(CC(=O)NC)C(=O)c1ccc(-c2ccsc2)nc1C	%	36.2
Cn1cnc(S(=O)(=O)N2CCCC2)c1Cl	%	13.2
O=S(=O)(N1CCCCC1)N1CCc2nc(C3CCNCC3)ncc2C1	%	-3.94

---

A collection of compounds and their measured Percent Effect
Biological target: Chromo domain-containing protein 1 (Saccharomyces cerevisiae (strain ATCC 204508 / S288c) (Baker's yeast)) (UniProt P32657)
Sequence (P32657 whole entry, the tested form may be a part): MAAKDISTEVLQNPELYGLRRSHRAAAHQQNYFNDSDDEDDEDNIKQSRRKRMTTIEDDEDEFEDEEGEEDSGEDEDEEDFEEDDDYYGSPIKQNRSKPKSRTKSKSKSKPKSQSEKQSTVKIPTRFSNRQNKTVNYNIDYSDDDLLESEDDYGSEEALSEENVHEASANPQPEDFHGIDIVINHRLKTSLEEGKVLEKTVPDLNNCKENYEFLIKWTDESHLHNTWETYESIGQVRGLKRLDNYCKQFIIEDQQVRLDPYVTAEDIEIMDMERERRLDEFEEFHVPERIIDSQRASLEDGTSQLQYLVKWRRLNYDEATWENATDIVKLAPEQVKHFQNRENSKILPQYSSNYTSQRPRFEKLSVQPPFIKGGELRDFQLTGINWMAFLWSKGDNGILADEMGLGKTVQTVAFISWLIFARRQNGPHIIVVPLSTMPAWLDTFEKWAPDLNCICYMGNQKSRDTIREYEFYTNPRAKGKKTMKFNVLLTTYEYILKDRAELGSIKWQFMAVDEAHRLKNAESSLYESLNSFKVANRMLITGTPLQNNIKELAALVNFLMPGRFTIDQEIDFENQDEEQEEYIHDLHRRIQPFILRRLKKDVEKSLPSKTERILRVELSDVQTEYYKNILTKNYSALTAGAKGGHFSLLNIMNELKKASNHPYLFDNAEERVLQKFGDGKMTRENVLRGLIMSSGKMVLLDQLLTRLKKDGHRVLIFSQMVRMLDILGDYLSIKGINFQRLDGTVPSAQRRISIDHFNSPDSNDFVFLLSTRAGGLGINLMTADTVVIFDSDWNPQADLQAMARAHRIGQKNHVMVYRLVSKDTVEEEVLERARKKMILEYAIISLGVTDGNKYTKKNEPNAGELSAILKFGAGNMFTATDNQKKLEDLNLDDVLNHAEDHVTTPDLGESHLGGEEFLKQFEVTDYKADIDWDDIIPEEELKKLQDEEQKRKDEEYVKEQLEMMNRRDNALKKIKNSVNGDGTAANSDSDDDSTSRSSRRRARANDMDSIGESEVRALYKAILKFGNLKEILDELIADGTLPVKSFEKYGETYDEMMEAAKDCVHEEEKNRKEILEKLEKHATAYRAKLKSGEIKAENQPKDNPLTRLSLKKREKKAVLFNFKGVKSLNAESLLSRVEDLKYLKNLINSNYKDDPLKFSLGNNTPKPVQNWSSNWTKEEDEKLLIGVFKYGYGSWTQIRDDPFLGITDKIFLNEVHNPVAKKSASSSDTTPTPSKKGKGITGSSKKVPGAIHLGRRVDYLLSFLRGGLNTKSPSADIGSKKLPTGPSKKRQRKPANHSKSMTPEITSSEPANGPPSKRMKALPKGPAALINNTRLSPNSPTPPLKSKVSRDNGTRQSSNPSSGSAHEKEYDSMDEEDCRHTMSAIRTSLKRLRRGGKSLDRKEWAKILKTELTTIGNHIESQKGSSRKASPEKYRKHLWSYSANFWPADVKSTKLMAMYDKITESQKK
Assay: ScCHD-1 Enzyme Inhibition Assay; also: in the data most compounds retested in dose-response had high values
Format: functional
Set-up: scale not given: direction of the effect not stated beside the values
Conditions: 30 µM

compound	unit-spec	Percent Effect
NC(=O)CN1CCCN(C(=O)c2ccn(-c3cccc(F)c3)n2)CC1	%	-0.989
CCC(O)CN1CCN(C(=O)c2ccnc(N(C)C)c2)CC1 (configuration not stated)	%	-4.75
O=C(C1CCC1)N1CCN(c2snc3ccccc23)CC1	%	-2
COCCNC(=O)[C@H]1C[C@@H]2CCN(c3nncs3)C[C@H]2O1	%	1.42
CN(Cc1ccncc1)C(=O)Nc1cnn(CC2CCCO2)c1 (configuration not stated)	%	-5.74
Cc1cc(C)c(CNC(=O)C2CCCN(c3cnccn3)C2)c(=O)[nH]1 (configuration not stated)	%	-5.39
COc1cc(C(=O)N(C2CC2)C2CC(=O)NC2=O)ccc1C (configuration not stated)	%	-4.59
O=C(CCc1nccs1)N1CCC(N2CCNC2=O)CC1	%	-3.97
O=C(CN1CCc2ccccc21)Nc1ccc(OC(F)F)cc1	%	88.5
Cc1ccc(N2CCCC(NCc3nc(C)c(C)o3)C2)nn1 (configuration not stated)	%	-25.4
COCCCn1ccnc1-c1cnc(OC)nc1	%	-3.88
Cc1occc1C(=O)N1CCCC2(CCN(CCN3CCCC3)C2=O)C1 (configuration not stated)	%	-0.372

---

Biological target: Proteasome subunit beta (Trypanosoma cruzi) (UniProt O96673)
Sequence (O96673 as listed by the source): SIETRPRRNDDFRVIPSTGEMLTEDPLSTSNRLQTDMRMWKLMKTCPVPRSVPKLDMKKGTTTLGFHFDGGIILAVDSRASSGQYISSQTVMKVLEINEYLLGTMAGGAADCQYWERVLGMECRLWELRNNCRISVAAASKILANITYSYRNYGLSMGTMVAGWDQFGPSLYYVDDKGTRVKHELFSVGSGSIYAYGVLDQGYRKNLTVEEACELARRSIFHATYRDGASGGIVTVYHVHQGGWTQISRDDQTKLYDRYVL
Assay: Trypanosoma cruzi proteasome chymotrypsin-like activity (TcProtChymo) assay. Also: in the data most compounds retested in dose-response had high values.
Type: functional
Design: scale not given: direction of the effect not stated beside the values
Conditions: 9.37 µM
A collection of molecules and their measured Percent Effect
readout-kind: Percent Effect (%)

molecule	readout-kind	unit-spec	observed-measurement
CC(C)c1nc(CN(C)CC2CCN(CCO)CC2)no1	Percent Effect	%	1.9
Cc1cccc(CN2C(=O)CC[C@@H]3[C@H]2CCN3CC2CCOCC2)n1	Percent Effect	%	14
COc1ccc(CN2CCn3cc(CN4CCN(C)CC4)nc3C2)cc1	Percent Effect	%	18.4
Cc1cc(F)ccc1S(=O)(=O)NCc1cccc(C(=O)N2CCCC2)c1	Percent Effect	%	2.34
CCCNC(=O)c1cc2c(nc1O)CCC(C)C2 (stereo unspecified)	Percent Effect	%	9.06
O=C(NCCCn1nc2ccccn2c1=O)NC1CCC(O)CC1 (stereo unspecified)	Percent Effect	%	22.5

---

Target: Chromo domain-containing protein 1 (Saccharomyces cerevisiae (strain ATCC 204508 / S288c) (Baker's yeast)) (UniProt P32657)
Experiment: ScCHD-1 Enzyme Inhibition Assay; also: in the data most compounds retested in dose-response had high values
Assay type: functional
Parameters: scale not given: direction of the effect not stated beside the values
Conditions: 30 µM
A collection of compounds and their measured Percent Effect

compound	Percent Effect, %
Cc1noc(Cl)c1CCC(=O)N1CCCCC1Cn1cccn1 (configuration not stated)	-7.11
Cn1ccc(C(=O)NC2CCC23CCN(C(=O)c2ccncc2)CC3)c1 (configuration not stated)	0.95
CCOC1CCCN(C(=O)c2cnc3c(cnn3C3CCCC3)c2)C1 (configuration not stated)	-4.24
Cc1cccc(N2CCN(CCNC(=O)c3ccnn3C)CC2)c1	5.87
O=C(Nc1nc2c(s1)CCC2)c1cccnc1N1CCOCC1	1.45
CN(C)CCN1CCO[C@H]2CN(Cc3cnn(C)c3)C[C@H]21	-3.54
COC(=O)c1ccc(C(=O)NS(=O)(=O)c2cncc(Br)c2)cc1	-0.393
Cc1cnn(CC2CCCN2Cc2nccn2C)c1 (configuration not stated)	-13.2
CC(C)COCC(NC(=O)c1cc[nH]n1)c1ccco1 (configuration not stated)	-12.3
O=C(CCc1ccsc1)NCC1CCN(c2ccccc2)C1 (configuration not stated)	-1.39
N#Cc1cccc(CN2CC[C@@H]3[C@@H]2CC(=O)N3Cc2cccnc2)c1	-1.86
Cc1nnc(NC(=O)CN(C)CC2CCCN2c2cccnn2)s1 (configuration not stated)	0.656
